# testedOn: T1, murine IL-11 (mouse, UniProt P47873 22-199)
# T1 construct: bought from Invigate; also called mIL-11; mIL11
# T1 sequence: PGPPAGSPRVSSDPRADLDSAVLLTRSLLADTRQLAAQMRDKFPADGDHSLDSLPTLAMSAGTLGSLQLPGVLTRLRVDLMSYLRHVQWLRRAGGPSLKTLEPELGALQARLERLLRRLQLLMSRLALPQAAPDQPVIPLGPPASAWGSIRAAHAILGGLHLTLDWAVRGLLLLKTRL
# methodDescription: SPR, antibody captured, IL-11 as analyte
readoutKind: Kd (nM)
# value in nM; strip the unit string

- binder: "TPP-21158 (antibody, V domains shown) VH: EVQLLESGGGLVQPGGSLRLSCAASGFTFSSYGMHWVRQAPGKGLEWVAVISYDGSYKYYADSVKGRFTISRDNSKNTLYLQMNSLRAEDTAVYYCARGVPDYWGQGTLVTVSS VL: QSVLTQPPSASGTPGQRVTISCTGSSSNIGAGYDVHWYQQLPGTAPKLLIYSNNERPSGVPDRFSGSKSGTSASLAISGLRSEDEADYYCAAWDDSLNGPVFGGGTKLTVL"
  valueReported: 13

Task item: Reported Kd for TPP-27160 (antibody, V domains shown) VH: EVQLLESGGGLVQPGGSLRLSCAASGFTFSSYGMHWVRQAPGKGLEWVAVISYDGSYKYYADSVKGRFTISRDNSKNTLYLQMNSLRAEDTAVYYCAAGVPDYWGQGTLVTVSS VL: QSVLTQPPSASGTPGQRVTISCSGSSSNIGSGYDVHWYQQLPGTAPKLLIYDNNERPSGVPDRFSGSKSGTSASLAISGLRSEDEADYYCAAWDDSLSGPVFGGGTKLTVL : what is it?
Reply: 56

Task item: Same thing, different binder: TPP-27154 (antibody, V domains shown) VH: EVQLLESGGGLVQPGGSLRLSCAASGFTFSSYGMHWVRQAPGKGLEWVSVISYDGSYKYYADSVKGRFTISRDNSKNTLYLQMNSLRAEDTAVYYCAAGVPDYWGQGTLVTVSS VL: QSVLTQPPSASGTPGQRVTISCTGSSSNIGAGYDVHWYQQLPGTAPKLLIYSNNERPSGVPDRFSGSKSGTSASLAISGLRSEDEADYYCAAWDDSLSGPVFGGGTKLTVL
Reply: 1.3

Task item: Same thing, different binder: TPP-27157 (antibody, V domains shown) VH: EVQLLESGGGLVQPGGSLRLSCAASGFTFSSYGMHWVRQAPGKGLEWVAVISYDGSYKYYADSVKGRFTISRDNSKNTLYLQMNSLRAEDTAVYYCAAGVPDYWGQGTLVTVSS VL: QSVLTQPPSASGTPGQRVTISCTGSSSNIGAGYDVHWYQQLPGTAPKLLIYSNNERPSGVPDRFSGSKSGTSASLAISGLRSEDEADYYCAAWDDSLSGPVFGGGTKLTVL
Reply: 1.1

Task item: Same thing, different binder: TPP-27156 (antibody, V domains shown) VH: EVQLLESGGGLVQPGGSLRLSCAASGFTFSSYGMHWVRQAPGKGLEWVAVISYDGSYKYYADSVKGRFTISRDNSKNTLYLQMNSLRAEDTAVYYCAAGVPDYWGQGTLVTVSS VL: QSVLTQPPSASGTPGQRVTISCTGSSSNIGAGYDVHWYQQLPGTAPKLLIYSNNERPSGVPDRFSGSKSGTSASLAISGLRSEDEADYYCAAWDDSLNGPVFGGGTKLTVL
Reply: 0.45
